The molecules listed here are annotated with their Ratio.
# experimental_protocol: Efflux ratio of MIC for Escherichia coli 25922 to MIC for Escherichia coli JW5503
# Type: functional

Past entries and their recorded results:
Q) Recorded Ratio for "CC(=O)NC[C@H]1CN(c2ccc(-c3ccc(COC(=O)c4cccc(B(O)O)c4)cc3)c(F)c2)C(=O)O1" , please?
A) > 16

Q) And the next one, CC(=O)NCC1CN(c2ccc(-c3ccc(COC(=O)c4ccc(B(O)O)cc4Cl)cc3)c(F)c2)C(=O)O1 (stereo not given) ?
A) > 2

Q) And the next one, "CC(=O)NC[C@H]1CN(c2ccc(-c3ccc(CN)cc3)c(F)c2)C(=O)O1" ?
A) > 8

Q) And the next one, CC(=O)NCC1CN(c2ccc(-c3ccc(COC(=O)c4ccc(B(O)O)cc4)cc3)c(F)c2)C(=O)O1 (stereo not given) ?
A) > 8

Continuing:
Q) Recorded Ratio for "CC(=O)NC[C@H]1CN(c2ccc(-c3cccc(COC(=O)c4ccc(B(O)O)cc4)c3)c(F)c2)C(=O)O1" , please?
A) > 16

Q) And the next one, "CC(=O)NC[C@H]1CN(c2ccc(-c3cccc(CO)c3)c(F)c2)C(=O)O1" ?
A) > 16

Q) And the next one, CC(=O)NCC1CN(c2ccc(-c3ccc(COC(=O)c4ccc(B(O)O)c(Cl)c4)cc3)c(F)c2)C(=O)O1 (stereo not given) ?
A) > 2

Q) And the next one, "CC(=O)NC[C@H]1CN(c2ccc(-c3ccc(COC(=O)c4ccc(B(O)O)cc4)cc3)c(F)c2)C(=O)O1" ?
A) > 16

Q) And the next one, "CC(=O)NC[C@H]1CN(c2ccc(-c3ccc(CNC(=O)c4ccc(B(O)O)cc4)cc3)c(F)c2)C(=O)O1" ?
A) > 64

Q) And the next one, CC(=O)NCC1CN(c2ccc(-c3ccc(COC(=O)c4ccc(B(O)O)c(F)c4)cc3)c(F)c2)C(=O)O1 (stereo not given) ?
A) > 4

Q) And the next one, CC(=O)NCC1CN(c2ccc(-c3ccc(COC(=O)c4ccc(B(O)O)cc4F)cc3)c(F)c2)C(=O)O1 (stereo not given) ?
A) > 2

Q) And the next one, "CC(=O)NC[C@H]1CN(c2ccc(-c3ccc(CNC(=O)c4cccc(B(O)O)c4)cc3)c(F)c2)C(=O)O1" ?
A) > 64

Q) And the next one, "CC(=O)NC[C@H]1CN(c2ccc(-c3ccc(CO)cc3)c(F)c2)C(=O)O1" ?
A) > 32

Q) And the next one, "CC(=O)NC[C@H]1CN(c2ccc(N3CCOCC3)c(F)c2)C(=O)O1" ?
A) > 1

Q) And the next one, "CC(=O)NC[C@H]1CN(c2ccc(-c3ccc(O)cc3)c(F)c2)C(=O)O1" ?
A) > 32

* * *

# System: Enterococcus faecalis
# experimental_protocol: Antibacterial activity against vancomycin resistant Enterococcus faecalis 51575 assessed as inhibition of bacterial growth measured after 24 hrs
# Assay type: functional
Friendly reminder: MIC below 2 µM is True, at or above is False.

Q) Dear reviewer, please state whether "O=C(O)c1ccc(B(O)O)cc1" has MIC strictly beneath 2 µM.
A) False

Continuing:
Q) Dear reviewer, please state whether "CC(=O)NC[C@H]1CN(c2ccc(-c3ccc(CN)cc3)c(F)c2)C(=O)O1" has MIC strictly beneath 2 µM.
A) True

Q) And the next one, CC(=O)NCC1CN(c2ccc(-c3ccc(COC(=O)c4ccc(B(O)O)c(F)c4)cc3)c(F)c2)C(=O)O1 (stereo not given) ?
A) True

Q) And the next one, "CC(=O)NC[C@H]1CN(c2ccc(-c3ccc(O)cc3)c(F)c2)C(=O)O1" ?
A) True
